- method-summary: yeast display, Sf9 membrane polyspecificity reagent, FACS + sequencing; frameworks hold sequencing errors
measure: polyreactivity (PSR sort gate)

INSERT INTO results (polymer_sequence, observed) VALUES
  ('QVQLVESGGGLVQAGGSLRLSCAASGSIFDINAMGWYRQAPGKERELVAAISTTSGRTYYADSVKGRFTISRDNAKNTVFLQMNSLKPEDTAVYYCNVSKYVSSYRRGLFNYWGQGTQVTVSS', 'low polyreactivity'),
  ('QFQLVESGGGLVQAGGTLRLSCAASRRIFIHYAMGLSRQAPGKERELVSAISASGGTTNYADSVKGRFTISRDNAKNTVYLQLKSQKQEDTAVYYCAAEGYRSWRGLLSRYYYWGQGTQVTVSS', 'high polyreactivity'),
  ('QVQLVESGGGLVQAGGSLRLSCAASGRIFSLNTMGWYRQAPGKERELVATITKRGGNTYYADSVKGRFTISRDNAKNTVYLQMNSLKPEDTAFYYCAVPRSITYRYGYWGQGTQVTVSS', 'high polyreactivity'),
  ('QVQLVESGGGLVQAGGSLRLSCAASGITFRWNAMGWYRQAPGKERELVAAITTRGGGTYYADSVKGRFTISRDNAKNTVYLQMNSLKPEDTAVYYCAAKKSRYPYNYWGQGTQVTVSS', 'high polyreactivity'),
  ('QVQLVESGGGLVQAGGSLRLSCAASGSIFWRYDMGWLDRRLGKKGSSLPLLLVLVTTRTTQTPVKGRFTISRDNAKNTVYLQMNSLKPEDTAVYYCAADLRASGLKYEYWGQGTQVTVSS', 'low polyreactivity'),
  ('QGQLVESGGGLVQAGGSLRLSCAASGSISGNYAMAWYRQAPGKERELVASIRYTGARTYYADSVKWRFTISRDNAKNTVYLQMNSLKPEDTAVYYCAADVKRDRVWGGDYWGQGTQVTVSS', 'low polyreactivity'),
  ('QVQLVESGGGLVQAGGSLRLSCAASGNIFRRYAMGWYREAPGKERELVAAISRGGTRTYYADSVKGRFTISRDNAKNTVYLQMNSLKPEDTAVYYCNAEVNTNYRIADYDYWGQGTQVTVSS', 'high polyreactivity'),
  ('QVPLVESGVGLVQAGGSLRLSCAASGSTISYYYMGWYRQAPGKEREFVAAIRRRGSSTYYADSVKGRFTISRDNAKNTVYLQINSLKPEDTAVYYCAKRTIAGRGRQYDYWGQGTQVSVSS', 'high polyreactivity'),
  ('QVQLVESGGGLVQAGGSLRLSCAASGTSGYYAMGWYRQAPGKERELVAGISIGGSTNYADSVKGRFTISRDNAKNTVYLQMNSLKPEDTAVYYCAVDGYVAFSPDRNNYWGQGTQVTLSS', 'low polyreactivity'),
  ('QVQLVESGGGLVQAGGSLRLSCAASGIIFASNAMGWYRQAPGKERELVAAISRSGGRTYYADSVKGRFTISRDNAKNTVYLQMNSLKPEDTAVYYCNAVQFGATAYDYWGQGTQVTVSS', 'high polyreactivity'),
  ('QIQLVESGGGFVQAGGSLRLSCAASGFTFHYYAMGWYSQAPGKERELGAAISWSSGRTYYADSVKGRFTISRDNAQNTVYLQMNSLKPEDTAVYSCAASSYNRGDYWGQGTQVTVSS', 'low polyreactivity');

----------
- method-summary: yeast display, Sf9 membrane polyspecificity reagent, FACS + sequencing; frameworks hold sequencing errors
measure: polyreactivity (PSR sort gate)

INSERT INTO assay_data (polymer_sequence, measure, observed) VALUES
  ('QVQLVESGGGLVQAGGSLRLSCAASGSTIRDYAMGWYRQAPGKERELVAVIDNSGGRTYYADSVKGRFTISRDNAKNTVYLQMNSLKAEDTAVYYCNTRRIAQYGYWGQGTQVTVSS', 'polyreactivity (PSR sort gate)', 'high polyreactivity'),
  ('QVQLVESGGGLVQAGGSLRLSCAASGFTFGANVMGWYRPAPGKERELVAGITWSGDSTYYADSVKGRFTISRDNAKNTVYLQMNSLKPEDTAVYYCAADVYDGEYILDYDYWGQGTQVTVSS', 'polyreactivity (PSR sort gate)', 'low polyreactivity'),
  ('QVQLVESGGGLVQAGGSLRLSCAASGSIFSFYAMGWYRPAPGKERELVAAISYRGGSTYYADSVKGRFTISRDNAKNTVYIQMNSLKPVDSAVSYCAAARFPVFIQGYRMEYWGQGTQVTVSS', 'polyreactivity (PSR sort gate)', 'low polyreactivity'),
  ('QVQLVESGGGLVQAGGSLRLSCAASGITFTKYAMGWYRQAPGNERELVAAITTTGGSTYYADSVKGRFTISRDKAKNTVYLQMTSLKPEETAVYYCATELGWGGFYKYGHASQFDYWGQGTQVTVSS', 'polyreactivity (PSR sort gate)', 'low polyreactivity'),
  ('QVQLVESGGGLVQAGGSLRLSCAASGNIFRVYDMGWYRQAPGKERELVPVIRWSSGRTYYADSVKGRFTISRDNAKNTVYLQMNSLKPEDTAVYYCATKLWRVPRNSHYDSYEYWGQGTQVTVSS', 'polyreactivity (PSR sort gate)', 'high polyreactivity');
